System: U2OS
Test: Incucyte cell viability with U2OS; note: filed as whole numbers so only -1 and 0 and 1 occur
Assay type: toxicity, cell-based
Settings: human, 12 h, 10 µM, compound concentration 10 uM, replicate number 1, timepoint 12 hours
Overview of reported Growth Rate across a group of compounds:
Lab note: jot the number down without any unit.

INSERT INTO measurements (compound, measured_metric, value_observed) VALUES
  ('Cc1ccc2[nH]c(CNCCCc3ccncc3)cc(=O)c2c1 [UCSF924NC]', 'Growth Rate', 0),
  ('CC(C)(Cc1ccccc1)NCC(O)c1ccc(O)c(NS(C)(=O)=O)c1.Cl (stereo not given) [ZINTEROL HYDROCHLORIDE]', 'Growth Rate', 1),
  ('Oc1cccc(-c2nc(N3CCOCC3)c3oc4ncccc4c3n2)c1 [PI-103]', 'Growth Rate', 1);

Entry under review: "CCOC(=O)CCNc1cc(N2CCc3ccccc3CC2)nc(-c2ccccn2)n1" . Reported Growth Rate?
0

May I ask what Growth Rate has been recorded for CN1C(=O)[C@@H](NC(=O)c2cc3ccccc3[nH]2)N=C(c2ccccc2)c2ccccc21 [DEVAZEPIDE] ?
1

Recorded values, source ChEMBL document CHEMBL4689842.
